Data provenance: patent US20250084092A1

molecular target: NLRP3 inflammasome (Homo sapiens, UniProt Q96P20); construct: endogenous in cells; test: THP-1 IL-1β production inhibition test; conditions: PMA-treated THP-1 cells, LPS 50 ng/mL + ATP 5 mM, 2 hours, IL-1β in supernatant by ELISA
Sequence (Q96P20 whole entry): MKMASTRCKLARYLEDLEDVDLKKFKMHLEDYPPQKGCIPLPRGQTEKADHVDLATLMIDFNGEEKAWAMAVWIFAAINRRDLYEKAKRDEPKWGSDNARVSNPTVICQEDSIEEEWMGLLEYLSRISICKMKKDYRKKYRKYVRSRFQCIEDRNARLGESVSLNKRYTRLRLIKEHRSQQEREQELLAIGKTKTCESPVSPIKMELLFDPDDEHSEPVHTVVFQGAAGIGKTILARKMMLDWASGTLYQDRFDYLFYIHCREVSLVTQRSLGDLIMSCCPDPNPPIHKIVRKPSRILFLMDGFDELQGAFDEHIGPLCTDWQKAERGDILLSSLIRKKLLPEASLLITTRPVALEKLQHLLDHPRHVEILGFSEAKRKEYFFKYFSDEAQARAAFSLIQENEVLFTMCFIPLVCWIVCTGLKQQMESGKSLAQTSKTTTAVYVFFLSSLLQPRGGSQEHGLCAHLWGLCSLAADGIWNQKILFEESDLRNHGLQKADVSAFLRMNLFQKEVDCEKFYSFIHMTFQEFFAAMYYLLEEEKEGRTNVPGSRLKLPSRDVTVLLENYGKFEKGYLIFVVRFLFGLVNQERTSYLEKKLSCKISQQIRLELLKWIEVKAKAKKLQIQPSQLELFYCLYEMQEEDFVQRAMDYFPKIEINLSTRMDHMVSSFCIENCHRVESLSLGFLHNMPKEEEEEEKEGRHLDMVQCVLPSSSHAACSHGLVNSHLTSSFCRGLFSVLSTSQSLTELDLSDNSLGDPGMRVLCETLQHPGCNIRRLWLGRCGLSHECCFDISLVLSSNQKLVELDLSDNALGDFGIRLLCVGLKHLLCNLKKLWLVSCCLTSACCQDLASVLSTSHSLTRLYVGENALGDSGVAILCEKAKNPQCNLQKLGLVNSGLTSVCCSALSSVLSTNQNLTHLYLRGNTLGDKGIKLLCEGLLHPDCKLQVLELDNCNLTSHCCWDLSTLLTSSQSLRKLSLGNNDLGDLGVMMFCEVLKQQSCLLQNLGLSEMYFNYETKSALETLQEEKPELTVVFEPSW
pIC50: −log10 of the molar value. Where a name gives a salt, the structure may show the parent alone.
Mark label 0 for pIC50 values under 8, and label 1 for everything at or above.

Hi team, for CN1CCC[C@@H](Nc2nnc(-c3ccc(OC(F)F)cc3O)c3c2COCC3)C1 [Example 136, dihydrochloride] , is the recorded pIC50 at or above 8?
label 1

Hi team, for Oc1cc(C(F)(F)F)ccc1-c1nnc(N[C@@H]2CCCC[C@H]2O)c2c1CSCC2 , is the recorded pIC50 at or above 8?
label 1

Hi team, for C[C@@H](O)CNc1nnc(-c2ccc(C(F)(F)F)cc2O)c2c1[C@H]1CC[C@@H]2CC1 , is the recorded pIC50 at or above 8?
label 0

Hi team, for Oc1cc(C(F)(F)F)ccc1-c1nnc(N[C@@H]2CCOC[C@H]2O)c2c1CCOC2 , is the recorded pIC50 at or above 8?
label 1

Hi team, for C[C@]1(O)C[C@@H](Nc2nnc(-c3ccc(C(F)(F)F)cc3O)c3c2CCCCC3)C1 , is the recorded pIC50 at or above 8?
label 0

Hi team, for Oc1cc(C(F)(F)F)ccc1-c1nnc(N[C@@H]2CCCC[C@H]2O)c2c1CCSC2 , is the recorded pIC50 at or above 8?
label 1

Hi team, for Oc1cc(OC(F)(F)F)ccc1-c1nnc(N[C@@H]2CCC[C@H](O)C2)c2c1CCOC2 , is the recorded pIC50 at or above 8?
label 1

Hi team, for COc1ccc(-c2nnc(N[C@@H]3CCOC[C@H]3O)c3c2CCCC3)c(O)c1 , is the recorded pIC50 at or above 8?
label 0

Hi team, for Oc1cc(C(F)(F)F)ccc1-c1nnc(N[C@@H]2CCCNC2)c2c1CCCC2 , is the recorded pIC50 at or above 8?
label 0

Hi team, for Oc1cc(OC(F)F)ccc1-c1nnc(N[C@@H]2CCCC[C@H]2O)c2c1CCOC2 , is the recorded pIC50 at or above 8?
label 1

Hi team, for Oc1cc(OC(F)(F)F)ccc1-c1nnc(N[C@@H]2CCCC[C@@H]2O)c2c1CCOC2 , is the recorded pIC50 at or above 8?
label 1

Hi team, for COc1ccc(-c2nnc(N[C@H]3C[C@@](C)(O)C3)c3c2CCCC3)c(O)c1 , is the recorded pIC50 at or above 8?
label 0

Hi team, for C[C@@H](O)CNc1nnc(-c2ccc(C(F)(F)F)cc2O)c2c1CCCC2 , is the recorded pIC50 at or above 8?
label 0

Hi team, for CC(C)(O)CNc1nnc(-c2ccc(C(F)(F)F)cc2O)c2c1CCC2 , is the recorded pIC50 at or above 8?
label 0

Hi team, for Oc1ccccc1-c1nnc(N[C@@H]2CCCC[C@H]2O)c2c1CCOC2 , is the recorded pIC50 at or above 8?
label 0

Hi team, for COc1ccc(-c2nnc(NCCCO)c3c2CCCC3)cc1 , is the recorded pIC50 at or above 8?
label 0

Hi team, for O=S1(=O)Cc2c(N[C@@H]3CCCC[C@H]3O)nnc(-c3ccc(C(F)(F)F)cc3O)c2C1 , is the recorded pIC50 at or above 8?
label 1

Hi team, for C[C@@H](O)CNc1nnc(-c2ccc(C(F)(F)F)cc2C(F)(F)F)c2c1CN(Cc1ccccc1)CC2 , is the recorded pIC50 at or above 8?
label 0

Hi team, for Oc1cc(C(F)(F)F)ccc1-c1nnc(N[C@@H]2CCC[C@H](O)C2)c2c1CCOC2 , is the recorded pIC50 at or above 8?
label 1

Hi team, for Oc1cc(C2CC2)ccc1-c1nnc(N[C@@H]2CCCC[C@H]2O)c2c1CCOC2 , is the recorded pIC50 at or above 8?
label 1

Hi team, for CC(=O)N1CCC[C@@H](Oc2nnc(-c3ccc(C(F)(F)F)cc3O)c3ccccc23)C1 , is the recorded pIC50 at or above 8?
label 0

Hi team, for CC(=O)NCCCCOc1nnc(-c2ccc(C(F)(F)F)cc2O)c2ccccc12 , is the recorded pIC50 at or above 8?
label 0

Hi team, for Oc1cc(C(F)(F)F)ccc1-c1nnc(N[C@@H]2CCCC[C@H]2O)c2c1CCCCC2 , is the recorded pIC50 at or above 8?
label 1

Hi team, for C[C@@H](O)CCc1nnc(-c2ccc(C(F)(F)F)cc2O)c2c1CCC2 , is the recorded pIC50 at or above 8?
label 0

Hi team, for CS(=O)(=O)N1CCc2c(-c3ccc(C(F)(F)F)cc3O)nnc(N[C@@H]3CCCC[C@H]3O)c2C1 , is the recorded pIC50 at or above 8?
label 0

----------
biological target: NLRP3 inflammasome (Homo sapiens, UniProt Q96P20); construct: endogenous in cells; assay: THP-1 IL-1β production inhibition test; conditions: PMA-treated THP-1 cells, LPS 50 ng/mL + ATP 5 mM, 2 hours, IL-1β in supernatant by ELISA
Field: log10 of IC50. Provide a value for each of the molecules that follow.
Please keep in mind that the values are log10 of IC50 expressed in nM.

Tell me its log10 of IC50 given Oc1cc(C(F)(F)F)ccc1-c1nnc(N[C@@H]2CCCC[C@@H]2O)c2c1CCOC2 as the entry.
0.40

Tell me its log10 of IC50 given Oc1cc(C(F)(F)F)c(F)cc1-c1nnc(N[C@@H]2CCCC[C@H]2O)c2c1CCOC2 as the entry.
1.04

Tell me its log10 of IC50 given CN1CCc2c(N[C@@H]3CCCC[C@H]3O)nnc(-c3ccc(C(F)(F)F)cc3O)c2C1 as the entry.
1.73

Tell me its log10 of IC50 given CN1CCC[C@@H](Nc2nnc(-c3ccc(C(F)(F)F)cc3O)c3c2COCC3)C1 as the entry.
0.18

Tell me its log10 of IC50 given Oc1cc(C(F)(F)F)ccc1-c1nnc(N[C@@H]2CCCC[C@H]2O)c2c1OCCC2 as the entry.
1.57

Tell me its log10 of IC50 given COc1ccc(-c2nnc(N[C@@H]3CCCC[C@H]3O)c3c2CCCCC3)c(O)c1 as the entry.
1.20

Tell me its log10 of IC50 given Oc1cc(OC(F)(F)F)ccc1-c1nnc(N[C@@H]2CCCC[C@H]2O)c2c1CCCC2 as the entry.
0.61

Tell me its log10 of IC50 given Oc1cc(C(F)(F)F)ccc1-c1nnc(N[C@@H]2CCCC[C@H]2O)c2c1CSC2 as the entry.
0.46

Tell me its log10 of IC50 given OCC1(CNc2nnc(-c3ccc(C(F)(F)F)cc3O)c3ccccc23)CC1 as the entry.
1.18

Tell me its log10 of IC50 given Cc1ccc(-c2nnc(N[C@@H]3CCCC[C@H]3O)c3c2CCN(C)C3)c(O)c1 as the entry.
1.52

Tell me its log10 of IC50 given Oc1cc(C(F)(F)F)ccc1-c1nnc(N[C@@H]2CCCC[C@H]2O)c2c1CNCC2 as the entry.
2.75

Tell me its log10 of IC50 given CC1(C)SCc2c(N[C@@H]3CCCN(CC(F)F)C3)nnc(-c3ccc(C(F)(F)F)cc3O)c21 as the entry.
1.98

----------
target: NLRP3 inflammasome (Homo sapiens, UniProt Q96P20); construct: endogenous in cells; assay: THP-1 IL-1β production inhibition test; conditions: PMA-treated THP-1 cells, LPS 50 ng/mL + ATP 5 mM, 2 hours, IL-1β in supernatant by ELISA
Criterion: IC50 strictly under 8 nM. Met: Fulfilled. Not met: Not fulfilled.

Decide: IC50 of Oc1cc(C(F)F)ccc1-c1nnc(N[C@@H]2CCCC[C@H]2O)c2c1CCOC2 [Example 87] strictly below 8 nM?
Fulfilled

Decide: IC50 of Oc1cc(C(F)(F)F)ccc1-c1nnc(N[C@@H]2CCOC[C@H]2O)c2c1CCCCC2 [Example 44] strictly below 8 nM?
Fulfilled

Decide: IC50 of Cc1ccc(-c2nnc(N[C@@H]3CCCC[C@H]3O)c3c2CCCC3)c(O)c1 [Example 26] strictly below 8 nM?
Not fulfilled

Decide: IC50 of Oc1cc(C(F)(F)F)ccc1-c1nnc(NC[C@H]2CCCO2)c2ccccc12 [Example 14] strictly below 8 nM?
Fulfilled

Decide: IC50 of Oc1cc(OC(F)(F)F)ccc1-c1nnc(N[C@@H]2CCCC[C@H]2O)c2c1CCOCC2 [Example 68] strictly below 8 nM?
Not fulfilled

Decide: IC50 of Oc1cc(C(F)F)ccc1-c1nnc(N[C@@H]2CCC[C@H](O)C2)c2c1COC2 [Example 114] strictly below 8 nM?
Not fulfilled

Decide: IC50 of Oc1cc(C(F)(F)F)ccc1-c1nnc(N[C@@H]2CCOC[C@H]2O)c2c1CCCC2 [Example 35] strictly below 8 nM?
Not fulfilled

Decide: IC50 of C[C@]1(O)C[C@@H](Nc2nnc(-c3ccc(C(F)(F)F)cc3O)c3c2COCC3)C1 [56(1)] strictly below 8 nM?
Fulfilled
